This collection of values is drawn from the supplement of paper PMC10567573.

B1: LOXL2 (parent)
chain: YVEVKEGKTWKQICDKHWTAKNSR

variants of: B1; test: protein stability index of a GFP-peptide fusion (GPS, HEK-293T) (PSI 1-6); higher = more stable; conditions: c terminus: a fixed tail appended;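 also: lentivirally expressed fusions sorted by FACS into six bins by GFP to DsRed ratio, PSI derived from sequencing read proportions per bin multiplied by bin number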
MEASURED_ATTRIBUTE: protein stability index

Worked examples follow.
var=I13K result=2.81
var=Y1Q result=3.58
var=Y1M result=3.49
var=T9C result=4.04
var=D15K result=2.94

Can you look up the measured protein stability index of K16E for me?
1.19

Can you look up the measured protein stability index of E6R for me?
1.84

Can you look up the measured protein stability index of W10P for me?
2.69

Can you look up the measured protein stability index of C14G for me?
2.31
